Data origin, for the record: patent US10168342B2

Below, each of the molecules is paired with its reported SILAC ratio, Por value.
- measured target: AEA-DA lipid probe targets in Neuro2a cells (Mus musculus, UniProt P37040)
- Sequence (P37040 whole entry): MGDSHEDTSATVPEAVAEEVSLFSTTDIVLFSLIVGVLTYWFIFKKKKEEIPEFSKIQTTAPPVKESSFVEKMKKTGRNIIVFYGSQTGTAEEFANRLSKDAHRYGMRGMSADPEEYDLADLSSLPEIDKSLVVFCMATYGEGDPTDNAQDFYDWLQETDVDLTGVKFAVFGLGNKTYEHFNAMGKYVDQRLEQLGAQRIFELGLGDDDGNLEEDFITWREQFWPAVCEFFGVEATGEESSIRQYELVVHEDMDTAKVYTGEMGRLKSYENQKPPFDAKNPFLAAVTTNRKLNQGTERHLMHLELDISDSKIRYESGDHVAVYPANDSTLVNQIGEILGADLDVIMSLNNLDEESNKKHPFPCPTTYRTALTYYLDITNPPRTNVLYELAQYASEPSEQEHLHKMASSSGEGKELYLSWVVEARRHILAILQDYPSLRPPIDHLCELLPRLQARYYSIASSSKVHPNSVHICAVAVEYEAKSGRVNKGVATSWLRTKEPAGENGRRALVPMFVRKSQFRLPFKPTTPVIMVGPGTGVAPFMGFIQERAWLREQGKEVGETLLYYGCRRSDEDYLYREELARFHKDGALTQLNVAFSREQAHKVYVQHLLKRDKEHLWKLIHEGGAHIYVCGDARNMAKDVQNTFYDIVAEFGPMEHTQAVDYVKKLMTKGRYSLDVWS
- cond: competitor 25 μM
measurement kind: SILAC ratio, Por

O=C(/C=C/c1cccnc1)NCCCCC1CCN(C(=O)c2ccccc2)CC1 [FK-866, reference compound] | 1.2
CN1CCN(C(=O)c2[nH]c3ccc([N+](=O)[O-])cc3c2-c2ccccc2)CC1 | 1.8
CN1CCN(C(=O)c2c(-c3ccccc3)c3cc([N+](=O)[O-])ccc3n2C)CC1 | 1.6
C=CCN(C)CCCCCCOc1ccc(C(=O)c2ccc(Br)cc2)c(F)c1 [Ro 48-8071, reference compound] | 1.5

---

Below, each of the compounds is paired with its reported SILAC ratio, Tmem33 value.
- measured target: AEA-DA lipid probe targets in Neuro2a cells (Mus musculus)
- cond: competitor 25 μM
measurement kind: SILAC ratio, Tmem33

CN1CCN(C(=O)c2[nH]c3ccc([N+](=O)[O-])cc3c2-c2ccccc2)CC1 | 1.5
CN1CCN(C(=O)c2c(-c3ccccc3)c3cc([N+](=O)[O-])ccc3n2C)CC1 | 1.4
C=CCN(C)CCCCCCOc1ccc(C(=O)c2ccc(Br)cc2)c(F)c1 [Ro 48-8071, reference compound] | 1.1
O=C(/C=C/c1cccnc1)NCCCCC1CCN(C(=O)c2ccccc2)CC1 [FK-866, reference compound] | 1.2

---

- measured target: AEA-DA lipid probe targets in Neuro2a cells (Mus musculus)
- cond: competitor 25 μM
measurement kind: SILAC ratio, Akr1b8

O=C(/C=C/c1cccnc1)NCCCCC1CCN(C(=O)c2ccccc2)CC1 [FK-866, reference compound] | 1.7
CN1CCN(C(=O)c2c(-c3ccccc3)c3cc([N+](=O)[O-])ccc3n2C)CC1 | 3.1
CN1CCN(C(=O)c2[nH]c3ccc([N+](=O)[O-])cc3c2-c2ccccc2)CC1 | 1.9
C=CCN(C)CCCCCCOc1ccc(C(=O)c2ccc(Br)cc2)c(F)c1 [Ro 48-8071, reference compound] | 1.4

---

- measured target: AEA-DA lipid probe targets in Neuro2a cells (Mus musculus)
- cond: competitor 25 μM
Below, each of the compounds is paired with its reported SILAC ratio Ndufs2 value.
measurement kind: SILAC ratio Ndufs2

O=C(/C=C/c1cccnc1)NCCCCC1CCN(C(=O)c2ccccc2)CC1 [FK-866, reference compound] | 1.7
CN1CCN(C(=O)c2[nH]c3ccc([N+](=O)[O-])cc3c2-c2ccccc2)CC1 [MJN228] | 1.3
C=CCN(C)CCCCCCOc1ccc(C(=O)c2ccc(Br)cc2)c(F)c1 [Ro 48-8071, reference compound] | 1.2
CN1CCN(C(=O)c2c(-c3ccccc3)c3cc([N+](=O)[O-])ccc3n2C)CC1 [KML110] | 1.3

---

- measured target: AEA-DA lipid probe targets in Neuro2a cells (Mus musculus, UniProt Q9CQF9)
- Sequence (Q9CQF9 29-505): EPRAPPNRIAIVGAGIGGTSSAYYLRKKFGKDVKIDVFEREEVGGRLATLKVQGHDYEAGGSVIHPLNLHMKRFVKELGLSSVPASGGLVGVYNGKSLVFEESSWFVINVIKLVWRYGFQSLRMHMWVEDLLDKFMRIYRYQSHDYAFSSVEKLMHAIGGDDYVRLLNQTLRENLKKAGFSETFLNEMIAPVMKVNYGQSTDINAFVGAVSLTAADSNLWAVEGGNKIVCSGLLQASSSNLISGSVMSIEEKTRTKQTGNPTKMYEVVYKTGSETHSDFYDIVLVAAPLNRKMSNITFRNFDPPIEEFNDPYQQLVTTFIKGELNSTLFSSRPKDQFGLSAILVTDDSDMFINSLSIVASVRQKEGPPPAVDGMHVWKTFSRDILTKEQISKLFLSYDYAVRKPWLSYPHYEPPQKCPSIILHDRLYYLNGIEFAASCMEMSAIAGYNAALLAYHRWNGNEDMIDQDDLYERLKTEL
- cond: competitor 25 μM
measurement kind: SILAC ratio, Pcyox1

C=CCN(C)CCCCCCOc1ccc(C(=O)c2ccc(Br)cc2)c(F)c1 [Ro 48-8071, reference compound] | 1.8
O=C(/C=C/c1cccnc1)NCCCCC1CCN(C(=O)c2ccccc2)CC1 [FK-866, reference compound] | 1.2
CN1CCN(C(=O)c2[nH]c3ccc([N+](=O)[O-])cc3c2-c2ccccc2)CC1 | 1.4
CN1CCN(C(=O)c2c(-c3ccccc3)c3cc([N+](=O)[O-])ccc3n2C)CC1 | 1.5

---

- measured target: AEA-DA lipid probe targets in Neuro2a cells (Mus musculus)
- cond: competitor 25 μM
measurement kind: SILAC ratio, Bcap31

C=CCN(C)CCCCCCOc1ccc(C(=O)c2ccc(Br)cc2)c(F)c1 [Ro 48-8071, reference compound] | 1.4
O=C(/C=C/c1cccnc1)NCCCCC1CCN(C(=O)c2ccccc2)CC1 [FK-866, reference compound] | 1.6
CN1CCN(C(=O)c2c(-c3ccccc3)c3cc([N+](=O)[O-])ccc3n2C)CC1 [KML110] | 2.0
CN1CCN(C(=O)c2[nH]c3ccc([N+](=O)[O-])cc3c2-c2ccccc2)CC1 [MJN228] | 2.5

---

- measured target: AEA-DA lipid probe targets in Neuro2a cells (Mus musculus, UniProt Q91WS0)
- Sequence (Q91WS0 whole entry): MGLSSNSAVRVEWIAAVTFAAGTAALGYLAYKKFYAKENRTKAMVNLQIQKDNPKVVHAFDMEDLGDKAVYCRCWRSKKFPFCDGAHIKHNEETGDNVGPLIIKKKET
- cond: competitor 25 μM
Below, each of the molecules is paired with its reported SILAC ratio Cisd1 value.
measurement kind: SILAC ratio Cisd1

CN1CCN(C(=O)c2c(-c3ccccc3)c3cc([N+](=O)[O-])ccc3n2C)CC1 | 1.6
O=C(/C=C/c1cccnc1)NCCCCC1CCN(C(=O)c2ccccc2)CC1 [FK-866, reference compound] | 1.1
C=CCN(C)CCCCCCOc1ccc(C(=O)c2ccc(Br)cc2)c(F)c1 [Ro 48-8071, reference compound] | 1.1
CN1CCN(C(=O)c2[nH]c3ccc([N+](=O)[O-])cc3c2-c2ccccc2)CC1 | 1.5

---

Below, each of the compounds is paired with its reported SILAC ratio Prph value.
- measured target: AEA-DA lipid probe targets in Neuro2a cells (Mus musculus)
- cond: competitor 25 μM
measurement kind: SILAC ratio Prph

CN1CCN(C(=O)c2c(-c3ccccc3)c3cc([N+](=O)[O-])ccc3n2C)CC1 | 1.1
CN1CCN(C(=O)c2[nH]c3ccc([N+](=O)[O-])cc3c2-c2ccccc2)CC1 | 1.2
O=C(/C=C/c1cccnc1)NCCCCC1CCN(C(=O)c2ccccc2)CC1 [FK-866, reference compound] | 1.2
C=CCN(C)CCCCCCOc1ccc(C(=O)c2ccc(Br)cc2)c(F)c1 [Ro 48-8071, reference compound] | 0.8

---

Below, each of the compounds is paired with its reported SILAC ratio Akr1c13 value.
- measured target: AEA-DA lipid probe targets in Neuro2a cells (Mus musculus, UniProt Q8VC28)
- Sequence (Q8VC28 whole entry): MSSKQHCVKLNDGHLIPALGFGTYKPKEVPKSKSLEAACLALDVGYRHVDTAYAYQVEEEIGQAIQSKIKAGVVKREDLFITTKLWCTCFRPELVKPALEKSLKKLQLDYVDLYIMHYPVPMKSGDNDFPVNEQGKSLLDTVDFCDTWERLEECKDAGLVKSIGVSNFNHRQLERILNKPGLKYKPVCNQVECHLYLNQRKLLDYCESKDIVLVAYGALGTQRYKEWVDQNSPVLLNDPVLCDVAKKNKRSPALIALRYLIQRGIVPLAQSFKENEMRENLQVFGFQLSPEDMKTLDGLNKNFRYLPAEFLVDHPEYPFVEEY
- cond: competitor 25 μM
measurement kind: SILAC ratio Akr1c13

O=C(/C=C/c1cccnc1)NCCCCC1CCN(C(=O)c2ccccc2)CC1 [FK-866, reference compound] | 1.0
CN1CCN(C(=O)c2c(-c3ccccc3)c3cc([N+](=O)[O-])ccc3n2C)CC1 | 1.1
CN1CCN(C(=O)c2[nH]c3ccc([N+](=O)[O-])cc3c2-c2ccccc2)CC1 | 1.0
C=CCN(C)CCCCCCOc1ccc(C(=O)c2ccc(Br)cc2)c(F)c1 [Ro 48-8071, reference compound] | 1.0

---

- measured target: AEA-DA lipid probe targets in Neuro2a cells (Mus musculus, UniProt Q8VHE0)
- Sequence (Q8VHE0 whole entry): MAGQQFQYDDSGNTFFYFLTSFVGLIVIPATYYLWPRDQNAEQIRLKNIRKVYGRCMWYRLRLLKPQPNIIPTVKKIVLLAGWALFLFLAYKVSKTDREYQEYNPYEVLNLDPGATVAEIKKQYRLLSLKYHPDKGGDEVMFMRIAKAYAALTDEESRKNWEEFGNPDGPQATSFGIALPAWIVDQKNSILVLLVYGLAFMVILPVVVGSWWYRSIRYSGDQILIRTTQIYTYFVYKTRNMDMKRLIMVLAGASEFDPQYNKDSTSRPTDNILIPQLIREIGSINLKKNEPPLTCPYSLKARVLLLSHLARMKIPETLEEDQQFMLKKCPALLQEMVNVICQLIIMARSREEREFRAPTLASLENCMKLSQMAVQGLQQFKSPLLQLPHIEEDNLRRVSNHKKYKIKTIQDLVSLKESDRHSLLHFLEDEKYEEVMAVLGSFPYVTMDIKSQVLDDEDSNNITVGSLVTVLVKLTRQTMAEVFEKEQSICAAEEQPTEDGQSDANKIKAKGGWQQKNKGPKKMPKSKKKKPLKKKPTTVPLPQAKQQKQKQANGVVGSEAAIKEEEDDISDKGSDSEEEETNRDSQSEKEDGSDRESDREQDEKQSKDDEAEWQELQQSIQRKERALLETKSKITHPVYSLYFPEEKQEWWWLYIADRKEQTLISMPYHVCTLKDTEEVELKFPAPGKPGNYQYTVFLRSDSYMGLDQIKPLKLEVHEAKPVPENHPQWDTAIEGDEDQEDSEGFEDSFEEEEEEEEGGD
- cond: competitor 25 μM
Below, each of the compounds is paired with its reported SILAC ratio Sec63 value.
measurement kind: SILAC ratio Sec63

C=CCN(C)CCCCCCOc1ccc(C(=O)c2ccc(Br)cc2)c(F)c1 [Ro 48-8071, reference compound] | 1.0
O=C(/C=C/c1cccnc1)NCCCCC1CCN(C(=O)c2ccccc2)CC1 [FK-866, reference compound] | 1.1
CN1CCN(C(=O)c2c(-c3ccccc3)c3cc([N+](=O)[O-])ccc3n2C)CC1 | 1.5
CN1CCN(C(=O)c2[nH]c3ccc([N+](=O)[O-])cc3c2-c2ccccc2)CC1 | 1.5

---

- measured target: AEA-DA lipid probe targets in Neuro2a cells (Mus musculus, UniProt P22315)
- Sequence (P22315 54-422): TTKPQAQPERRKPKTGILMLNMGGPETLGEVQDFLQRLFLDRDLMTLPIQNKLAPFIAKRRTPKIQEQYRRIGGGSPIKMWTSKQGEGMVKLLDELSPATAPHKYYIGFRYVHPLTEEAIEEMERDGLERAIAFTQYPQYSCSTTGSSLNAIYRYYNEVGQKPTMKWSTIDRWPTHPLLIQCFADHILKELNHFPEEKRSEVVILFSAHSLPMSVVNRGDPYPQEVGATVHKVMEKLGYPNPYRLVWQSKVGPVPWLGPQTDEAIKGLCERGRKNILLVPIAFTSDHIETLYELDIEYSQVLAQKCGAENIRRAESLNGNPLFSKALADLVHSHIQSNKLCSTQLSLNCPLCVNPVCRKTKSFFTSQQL
- cond: competitor 25 μM
measurement kind: SILAC ratio, Fech

CN1CCN(C(=O)c2c(-c3ccccc3)c3cc([N+](=O)[O-])ccc3n2C)CC1 | 2.2
CN1CCN(C(=O)c2[nH]c3ccc([N+](=O)[O-])cc3c2-c2ccccc2)CC1 | 2.4
O=C(/C=C/c1cccnc1)NCCCCC1CCN(C(=O)c2ccccc2)CC1 [FK-866, reference compound] | 20.0
C=CCN(C)CCCCCCOc1ccc(C(=O)c2ccc(Br)cc2)c(F)c1 [Ro 48-8071, reference compound] | 1.4

---

Below, each of the compounds is paired with its reported SILAC ratio Atp13a1 value.
- measured target: AEA-DA lipid probe targets in Neuro2a cells (Mus musculus, UniProt Q9EPE9)
- Sequence (Q9EPE9 whole entry): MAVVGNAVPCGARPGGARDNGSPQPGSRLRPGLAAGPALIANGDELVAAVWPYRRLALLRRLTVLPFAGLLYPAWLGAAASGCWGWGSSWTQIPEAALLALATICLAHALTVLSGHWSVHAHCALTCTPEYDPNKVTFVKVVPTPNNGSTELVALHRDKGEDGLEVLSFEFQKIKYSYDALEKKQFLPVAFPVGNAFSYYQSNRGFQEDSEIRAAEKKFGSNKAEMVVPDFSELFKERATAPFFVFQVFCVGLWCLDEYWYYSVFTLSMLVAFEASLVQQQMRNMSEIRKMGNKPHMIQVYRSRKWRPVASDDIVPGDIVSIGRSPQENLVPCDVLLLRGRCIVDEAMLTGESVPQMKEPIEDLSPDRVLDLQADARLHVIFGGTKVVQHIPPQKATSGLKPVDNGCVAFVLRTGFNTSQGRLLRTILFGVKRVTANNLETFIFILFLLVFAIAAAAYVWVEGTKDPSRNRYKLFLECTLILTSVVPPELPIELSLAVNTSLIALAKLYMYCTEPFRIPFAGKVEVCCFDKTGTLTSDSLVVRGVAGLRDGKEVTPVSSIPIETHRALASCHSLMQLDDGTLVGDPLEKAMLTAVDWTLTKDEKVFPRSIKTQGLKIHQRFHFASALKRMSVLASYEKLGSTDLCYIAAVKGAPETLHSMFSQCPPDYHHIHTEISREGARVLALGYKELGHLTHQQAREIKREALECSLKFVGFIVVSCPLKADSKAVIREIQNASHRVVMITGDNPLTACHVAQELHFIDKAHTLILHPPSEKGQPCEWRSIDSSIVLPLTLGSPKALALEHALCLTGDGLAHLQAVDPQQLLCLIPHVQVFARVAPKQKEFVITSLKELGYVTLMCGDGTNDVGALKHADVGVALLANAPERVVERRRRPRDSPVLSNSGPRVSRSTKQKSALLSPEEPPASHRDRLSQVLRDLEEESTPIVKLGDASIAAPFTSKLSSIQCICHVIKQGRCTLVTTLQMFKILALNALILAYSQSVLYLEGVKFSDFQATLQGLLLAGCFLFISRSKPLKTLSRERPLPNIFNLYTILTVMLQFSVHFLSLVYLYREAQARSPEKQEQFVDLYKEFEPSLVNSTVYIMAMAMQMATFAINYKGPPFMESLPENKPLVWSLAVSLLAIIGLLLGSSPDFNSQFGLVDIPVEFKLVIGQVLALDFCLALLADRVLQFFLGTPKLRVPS
- cond: competitor 25 μM
measurement kind: SILAC ratio Atp13a1

CN1CCN(C(=O)c2c(-c3ccccc3)c3cc([N+](=O)[O-])ccc3n2C)CC1 [KML110] | 1.7
CN1CCN(C(=O)c2[nH]c3ccc([N+](=O)[O-])cc3c2-c2ccccc2)CC1 [MJN228] | 1.7
O=C(/C=C/c1cccnc1)NCCCCC1CCN(C(=O)c2ccccc2)CC1 [FK-866, reference compound] | 1.1
C=CCN(C)CCCCCCOc1ccc(C(=O)c2ccc(Br)cc2)c(F)c1 [Ro 48-8071, reference compound] | 1.2
